Species on record: Rattus norvegicus
Assay: DrugMatrix - Regimen: Daily Repeat
Format: toxicity, organism-based, Sprague-Dawley
Set-up: regimen Daily Repeat, gender Male, age 6-8 weeks
Details: in vivo, po, 0 mg/kg, 120 h, tissue Plasma, route oral GAVAGE, dose level Control, time 5 day, vehicle .5 % CMC
// classify: if (CHOLESTEROL < 70 mg/dL) Satisfied else Not satisfied

Solved cases (6 shown):
Molecule	Cat
Clc1ccccc1CN1CCc2sccc2C1	Satisfied
O=C1C(CC[S+]([O-])c2ccccc2)C(=O)N(c2ccccc2)N1c1ccccc1 (stereo not given)	Not satisfied
CN(C)[C@@H]1C(O)=C(C(N)=O)C(=O)[C@@]2(O)C(O)=C3C(=O)c4c(O)ccc(Cl)c4[C@@](C)(O)[C@H]3C[C@@H]12	Satisfied
CC(C(=O)O)c1ccc2oc(-c3ccc(Cl)cc3)nc2c1 (stereo not given)	Not satisfied
CNCCC(Oc1ccc(C(F)(F)F)cc1)c1ccccc1 (stereo not given)	Satisfied
NCCCC(O)(P(=O)(O)O)P(=O)(O)O	Satisfied

// switching to the query molecule
Take the molecule COc1ccc(C2C(=O)c3ccccc3C2=O)cc1 and say whether its CHOLESTEROL is less than 70 mg/dL.
Satisfied

###

Organism: Rattus norvegicus
Assay: DrugMatrix - Regimen: Daily Repeat
Type: toxicity, organism-based, Sprague-Dawley
Parameters: regimen Daily Repeat, gender Male, age 6-8 weeks
Conditions: in vivo, po, 0 mg/kg, 72 h, tissue Plasma, route oral GAVAGE, dose level Control, time 3 day, vehicle 100 % WATER
Outcome Measure: PHOSPHORUS (mg/dL)
Give bare numbers, in mg/dL.

Take a look at these entries with their results.
Compound	Numeric Readout
CN(C)CCOC(c1ccccc1)c1ccccc1 [DIPHENHYDRAMINE]	11.48
C[C@]12C=CC(=O)C=C1CC[C@@H]1[C@@H]2[C@@H](O)C[C@@]2(C)[C@H]1CC[C@]2(O)C(=O)CO [PREDNISOLONE]	11.92
CC(C)(C)CC(C)(C)c1ccc(OCCOCC[N+](C)(C)Cc2ccccc2)cc1.[Cl-] [BENZETHONIUM CHLORIDE]	11.48
Cc1ccc(NC(=O)c2ccc(CN3CCN(C)CC3)cc2)cc1Nc1nccc(-c2cccnc2)n1 [IMATINIB]	11.72
CN(C)CC[C@@H](c1ccc(Cl)cc1)c1ccccn1 [DEXCHLORPHENIRAMINE]	12.08

# return PHOSPHORUS for each item in the list
1. Cn1c(=O)c2[nH]cnc2n(C)c1=O.O [THEOPHYLLINE]
2. Oc1cccc(O)c1O [PYROGALLOL]
3. CN1[C@@H]2CC[C@H]1C[C@@H](OC(=O)C(CO)c1ccccc1)C2 (stereo partly drawn) [ATROPINE]
4. CC(C)NCC(O)c1ccc(NS(C)(=O)=O)cc1 (stereo not drawn) [SOTALOL]
5. O.O.O.O.O.O.[Cl-].[Cl-].[Sr+2] [STRONTIUM CHLORIDE HEXAHYDRATE]
6. CCN(CC)CCNC(=O)c1cc(S(C)(=O)=O)ccc1OC [TIAPRIDE]

1. 12.18
2. 11.42
3. 10.88
4. 12.58
5. 11.72
6. 11.72

# return PHOSPHORUS for each item in the list
1. CS(=O)(=O)c1ccc([C@@H](O)[C@@H](CO)NC(=O)C(Cl)Cl)cc1 [THIAMPHENICOL]
2. NNc1nncc2ccccc12 [HYDRALAZINE]

11.72
11.48

###

Can you tell me LYMPHOCYTE for the items I'm about to list?
Species on record: Rattus norvegicus
Assay: DrugMatrix - Regimen: Daily Repeat
Assay type: toxicity, organism-based, Sprague-Dawley
Design: regimen Daily Repeat, gender Male, age 6-8 weeks
Settings: in vivo, po, 0 mg/kg, 72 h, tissue Blood, route oral GAVAGE, dose level Control, time 3 day, vehicle .5 % CMC
One number for each entry, in %.

Take a look at these entries with their results.
Compound	Quantity Unit	LYMPHOCYTE
Cn1c(=O)c2c(ncn2CC(O)CO)n(C)c1=O (stereo not given)	%	84.83
CN(C)[C@@H]1C(O)=C(C(N)=O)C(=O)[C@@]2(O)C(O)=C3C(=O)c4c(O)ccc(Cl)c4[C@@](C)(O)[C@H]3C[C@@H]12	%	84.83
NCCCC(O)(P(=O)(O)O)P(=O)(O)O	%	84.8
O=C1Nc2ccc(Cl)cc2C(c2ccccc2Cl)=NC1O (stereo not given)	%	90.17

Now let's try a different one.
Value lookup for LYMPHOCYTE; key = O=C1C(CC[S+]([O-])c2ccccc2)C(=O)N(c2ccccc2)N1c1ccccc1 (stereo not given)
90.17

###

Species: Rattus norvegicus
Assay: DrugMatrix - Regimen: Daily Repeat
Assay type: toxicity, organism-based, Sprague-Dawley
Parameters: regimen Daily Repeat, gender Male, age 6-8 weeks
Settings: in vivo, po, 0 mg/kg, 120 h, tissue Plasma, route oral GAVAGE, dose level Control, time 5 day, vehicle .5 % CMC
Outcome Measure: CHOLESTEROL (mg/dL)
Numbers only, in mg/dL.

Take a look at these entries with their results.
Compound	Outcome Measure	Quantity Unit	Numeric Readout
O=C1Nc2ccc(Cl)cc2C(c2ccccc2Cl)=NC1O (stereo not drawn) [LORAZEPAM]	CHOLESTEROL	mg/dL	72.83
Cn1c(=O)c2c(ncn2CC(O)CO)n(C)c1=O (stereo not drawn) [DYPHYLLINE]	CHOLESTEROL	mg/dL	63.67

Now let's try a different one.
Value lookup for CHOLESTEROL; key = CC(=O)Oc1ccc(C(c2ccc(OC(C)=O)cc2)c2ccccn2)cc1 [BISACODYL]
75.5

###

Can you tell me LYMPHOCYTE for the items I'm about to list?
Species: Rattus norvegicus
Assay: DrugMatrix - Regimen: Daily Repeat
Type: toxicity, organism-based, Sprague-Dawley
Set-up: regimen Daily Repeat, gender Male, age 6-8 weeks
Conditions: in vivo, po, 2000 mg/kg, 120 h, tissue Blood, route oral GAVAGE, dose level High, time 5 day, vehicle .5 % CMC
One number for each entry, in %.

Take a look at these entries with their results.
Compound	Quantity Unit	LYMPHOCYTE
COc1cc2nc(N3CCN(C(=O)c4ccco4)CC3)nc(N)c2cc1OC [PRAZOSIN]	%	93.33
CC1(C)S[C@@H]2[C@H](NC(=O)[C@H](N)c3ccccc3)C(=O)N2[C@H]1C(=O)O [AMPICILLIN]	%	88.67
CN(C/C=C/C#CC(C)(C)C)Cc1cccc2ccccc12 [TERBINAFINE]	%	87.33
NC1CCN(c2nc3c(cc2F)c(=O)c(C(=O)O)cn3-c2ccc(F)cc2F)C1 (stereo unspecified) [TOSUFLOXACIN]	%	93.67
CN/C(=N/CCSCc1nc[nH]c1C)NC#N [CIMETIDINE]	%	91.33

Value lookup for LYMPHOCYTE; key = O=C1Nc2ccc(Cl)cc2C(c2ccccc2Cl)=NC1O (stereo unspecified) [LORAZEPAM]
89

###

Species on record: Rattus norvegicus
Test: DrugMatrix - Regimen: Daily Repeat
Assay type: toxicity, organism-based, Sprague-Dawley
Parameters: regimen Daily Repeat, gender Male, age 6-8 weeks
Settings: in vivo, po, 1500 mg/kg, 120 h, tissue Plasma, route oral GAVAGE, dose level High, time 5 day, vehicle .5 % CMC
Outcome Measure: GLUCOSE (mg/dL)
One number for each entry, in mg/dL.

Compound	GLUCOSE / mg/dL
CC(C)=CCC/C(C)=C/CO [GERANIOL]	143
COC(=O)Nc1nc2ccc([S+]([O-])c3ccccc3)cc2[nH]1 (stereo not given) [OXFENDAZOLE]	143
CN(C)[C@@H]1C(O)=C(C(N)=O)C(=O)[C@@]2(O)C(O)=C3C(=O)c4c(O)ccc(Cl)c4[C@@](C)(O)[C@H]3C[C@@H]12 [CHLORTETRACYCLINE]	151.33
CC(C)Oc1ccc2c(=O)c(-c3ccccc3)coc2c1 [IPRIFLAVONE]	153

Now let's try a different one.
Value lookup for GLUCOSE; key = O=c1cnn([C@@H]2O[C@H](CO)[C@@H](O)[C@H]2O)c(=O)[nH]1 [6-AZAURIDINE]
159

###

Organism: Rattus norvegicus
Test: DrugMatrix - Regimen: Daily Repeat
Format: toxicity, organism-based, Sprague-Dawley
Parameters: regimen Daily Repeat, gender Male, age 6-8 weeks
Settings: in vivo, po, 0 mg/kg, 120 h, tissue Plasma, route oral GAVAGE, dose level Control, time 5 day, vehicle .5 % CMC
Can you tell me GLUCOSE for the items I'm about to list?

Take a look at these entries with their results.
Compound	Outcome Measure	Result
CN/C(=N/CCSCc1nc[nH]c1C)NC#N [CIMETIDINE]	GLUCOSE	177.83 mg/dL
COC1=C(OC)C(=O)C(CCCCCCCCCCO)=C(C)C1=O [IDEBENONE]	GLUCOSE	177.83 mg/dL
O=C1C(CC[S+]([O-])c2ccccc2)C(=O)N(c2ccccc2)N1c1ccccc1 (centres undefined) [SULFINPYRAZONE]	GLUCOSE	150.5 mg/dL
CCN(CC)CCOc1ccc(/C(=C(/Cl)c2ccccc2)c2ccccc2)cc1 [ENCLOMIPHENE]	GLUCOSE	168.83 mg/dL
O=C1Nc2ccc(Cl)cc2C(c2ccccc2Cl)=NC1O (centres undefined) [LORAZEPAM]	GLUCOSE	150.5 mg/dL
CN(C)[C@@H]1C(O)=C(C(N)=O)C(=O)[C@@]2(O)C(O)=C3C(=O)c4c(O)ccc(Cl)c4[C@@](C)(O)[C@H]3C[C@@H]12 [CHLORTETRACYCLINE]	GLUCOSE	155.33 mg/dL
O=C1CN=C(c2ccccc2Cl)c2cc([N+](=O)[O-])ccc2N1 [CLONAZEPAM]	GLUCOSE	177.83 mg/dL
NC1CCN(c2nc3c(cc2F)c(=O)c(C(=O)O)cn3-c2ccc(F)cc2F)C1 (centres undefined) [TOSUFLOXACIN]	GLUCOSE	171.33 mg/dL

Value lookup for GLUCOSE; key = Cn1c(=O)c2c(ncn2CC(O)CO)n(C)c1=O (centres undefined) [DYPHYLLINE]
155.33 mg/dL
